Source of measurements: patent US20250090996A1

# methodDescription: Amount of compound dissolved in water (total organic carbon of lower aqueous phase)
# Format: physicochemical
# measurementSetup: 25° C., atmospheric pressure, converted from total organic carbon of lower phase
readout: amount of compound dissolved

Task: Entry `CCC(CC)NCCCNC(CC)CC` : reported amount of compound dissolved = ?
Result: 18,000 mg/L

Task: Entry CC(C)CC(C)NCCCNCCCNC(C)CC(C)C (stereo not shown) : reported amount of compound dissolved = ?
Result: 11,000 mg/L

Task: Entry `CCC(CC)NCCCN(C)CCCNC(CC)CC` : reported amount of compound dissolved = ?
Result: 22,000 mg/L

New cases:
Task: Entry CC(C)CC(C)NCCCN(C)CCCNC(C)CC(C)C (stereo not shown) : reported amount of compound dissolved = ?
Result: 4,000 mg/L
